Test system: 186277-243-T-J2-PDC complex spheroid growth;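 also: luminescent signal used as a stand-in for viable cell amount; spheroids exposed to compounds for seven days before the viability read; 100% = DMSO vehicle control wells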
Experiment: Anticancer human tumor 186277-243-T-J2-PDC patient-derived colon adenocarcinoma cell line growth inhibition [AhR]; active = viability on the fitted dose curve at most 10% of control; inactive = the rest
Conditions: second compound 10 µM; first compound 0.3 µM
Please state which outcome applies, choosing from 1 (active), 0 (inactive)

molecule="CCN(c1cc(-c2ccc(CN3CCOCC3)cc2)cc(C(=O)NCc2c(C)cc(C)[nH]c2=O)c1C)C1CCOCC1 + CC(CO)NC(=O)c1cc(-c2ccc(Cl)cc2)nn(-c2cnn(C)c2)c1=O" assignedclass=0
molecule="CCc1c2c(nc3ccc(O)cc13)-c1cc3c(c(=O)n1C2)COC(=O)[C@]3(O)CC + CC(CO)NC(=O)c1cc(-c2ccc(Cl)cc2)nn(-c2cnn(C)c2)c1=O" assignedclass=1
molecule="O=C(C=Cn1cnc(-c2cc(C(F)(F)F)cc(C(F)(F)F)c2)n1)NNc1cnccn1 + Cc1ccccc1N=Nc1ccc(NC(=O)c2ccnn2C)c(C)c1" assignedclass=0

Prompt: What did the test return for CC(C)CC(NC(=O)C(Cc1ccccc1)NC(=O)c1cnccn1)B(O)O (stereo unspecified) + CC(CO)NC(=O)c1cc(-c2ccc(Cl)cc2)nn(-c2cnn(C)c2)c1=O ?
Response: 1

Prompt: Repeat with O=C(C=Cn1cnc(-c2cc(C(F)(F)F)cc(C(F)(F)F)c2)n1)NNc1cnccn1 + CC(CO)NC(=O)c1cc(-c2ccc(Cl)cc2)nn(-c2cnn(C)c2)c1=O
Response: 0

Prompt: Repeat with Nc1ncn(C2CC(O)C(CO)S2)c(=O)n1 (stereo unspecified) + CC(CO)NC(=O)c1cc(-c2ccc(Cl)cc2)nn(-c2cnn(C)c2)c1=O
Response: 0
